Each entry below carries its recorded TGI.
# System: COLO 205 colon
# ASSAY COMMENT: NCI tumour cell line growth inhibition, 48 h

# example entries with known answers
compound="O=C(/C=C/c1ccc(O)c(O)c1)NC(CO)C(=O)O (stereo unspecified)" recorded_metric=TGI reported_measurement="> 100 µM"
compound="CCC(=O)N(c1ccccc1)C(C)CN1CCC(O)(c2ccccc2)CC1 (stereo unspecified)" recorded_metric=TGI reported_measurement="> 100 µM"
compound=N#C/C(=C\c1ccc(Cl)cc1)c1nc2ccccc2c(=O)[nH]1 recorded_metric=TGI reported_measurement="> 100 µM"

Recorded TGI of Fc1ccc(C(OCCN2CCC3CCC(C2)N3CCCc2ccccc2)c2ccc(F)cc2)cc1 (stereo unspecified) , please.
2.67 µM

Recorded TGI of COc1cc(C)cc2c1OC(c1ccccc1)CC2=O (stereo unspecified) , please.
> 100 µM

Recorded TGI of "Cc1ccc2sc3cc(=O)cc(C)c-3nc2c1" , please.
> 100 µM
